Reference for the values: patent US20220162192A1

Recorded pIC50, one value per entry.
Biological target: Recombinant wild type LRRK2 protein (Homo sapiens)
Construct: purchased Life Technologies PR8604B
Assay: LanthaScreen Kinase Activity Assay (TR-FRET), wild type LRRK2
Format: biochemical
Conditions: class symbols; 25 μM ATP, 400 nM LRRKtide, 2.9 nM kinase, 60 min at room temperature; read-out: LRRK2 WT IC50
pIC50: −log10 of the molar value.

>  <Smiles>
Cc1cc2cnnn2c(C)c1C(=O)Nc1ccc2[nH]nc(-c3ccccc3)c2c1

>  <pIC50>
≥ 7.00

$$$$
>  <Smiles>
Cc1n[nH]c2ccc(NC(=O)c3c(Cl)cn4cnnc4c3Cl)cc12

>  <pIC50>
6.00 to 7.00

$$$$
>  <Smiles>
Cc1cc2[nH]cnc2cc1C(=O)Nc1ccc2[nH]nc(Br)c2c1

>  <pIC50>
6.00 to 7.00

$$$$
>  <Smiles>
Cc1cc2cnnn2c(C)c1C(=O)Nc1ccc2[nH]nc(-c3ccccc3F)c2c1

>  <pIC50>
6.00 to 7.00

$$$$
>  <Smiles>
Cc1cc2c(C)ncn2c(C)c1C(=O)Nc1ccc2[nH]nc(-c3ccoc3)c2c1

>  <pIC50>
≥ 7.00

$$$$
>  <Smiles>
Cn1ncc2c(F)c(C(=O)Nc3ccc4[nH]nc(-c5cocn5)c4c3)c(F)cc21

>  <pIC50>
6.00 to 7.00

$$$$
>  <Smiles>
Cc1ncc(-c2n[nH]c3ccc(NC(=O)c4c(F)cc5c(cnn5C)c4F)cc23)s1

>  <pIC50>
≥ 7.00

$$$$
>  <Smiles>
Cn1ncc2c(F)c(C(=O)Nc3ccc4[nH]nc(-c5ccc(N6CCOCC6)cc5)c4c3)c(F)cc21

>  <pIC50>
≥ 7.00

$$$$

====

Biological target: Recombinant wild type LRRK2 protein (Homo sapiens, UniProt Q5S007)
Construct: purchased Life Technologies PR8604B
Sequence (Q5S007 whole entry): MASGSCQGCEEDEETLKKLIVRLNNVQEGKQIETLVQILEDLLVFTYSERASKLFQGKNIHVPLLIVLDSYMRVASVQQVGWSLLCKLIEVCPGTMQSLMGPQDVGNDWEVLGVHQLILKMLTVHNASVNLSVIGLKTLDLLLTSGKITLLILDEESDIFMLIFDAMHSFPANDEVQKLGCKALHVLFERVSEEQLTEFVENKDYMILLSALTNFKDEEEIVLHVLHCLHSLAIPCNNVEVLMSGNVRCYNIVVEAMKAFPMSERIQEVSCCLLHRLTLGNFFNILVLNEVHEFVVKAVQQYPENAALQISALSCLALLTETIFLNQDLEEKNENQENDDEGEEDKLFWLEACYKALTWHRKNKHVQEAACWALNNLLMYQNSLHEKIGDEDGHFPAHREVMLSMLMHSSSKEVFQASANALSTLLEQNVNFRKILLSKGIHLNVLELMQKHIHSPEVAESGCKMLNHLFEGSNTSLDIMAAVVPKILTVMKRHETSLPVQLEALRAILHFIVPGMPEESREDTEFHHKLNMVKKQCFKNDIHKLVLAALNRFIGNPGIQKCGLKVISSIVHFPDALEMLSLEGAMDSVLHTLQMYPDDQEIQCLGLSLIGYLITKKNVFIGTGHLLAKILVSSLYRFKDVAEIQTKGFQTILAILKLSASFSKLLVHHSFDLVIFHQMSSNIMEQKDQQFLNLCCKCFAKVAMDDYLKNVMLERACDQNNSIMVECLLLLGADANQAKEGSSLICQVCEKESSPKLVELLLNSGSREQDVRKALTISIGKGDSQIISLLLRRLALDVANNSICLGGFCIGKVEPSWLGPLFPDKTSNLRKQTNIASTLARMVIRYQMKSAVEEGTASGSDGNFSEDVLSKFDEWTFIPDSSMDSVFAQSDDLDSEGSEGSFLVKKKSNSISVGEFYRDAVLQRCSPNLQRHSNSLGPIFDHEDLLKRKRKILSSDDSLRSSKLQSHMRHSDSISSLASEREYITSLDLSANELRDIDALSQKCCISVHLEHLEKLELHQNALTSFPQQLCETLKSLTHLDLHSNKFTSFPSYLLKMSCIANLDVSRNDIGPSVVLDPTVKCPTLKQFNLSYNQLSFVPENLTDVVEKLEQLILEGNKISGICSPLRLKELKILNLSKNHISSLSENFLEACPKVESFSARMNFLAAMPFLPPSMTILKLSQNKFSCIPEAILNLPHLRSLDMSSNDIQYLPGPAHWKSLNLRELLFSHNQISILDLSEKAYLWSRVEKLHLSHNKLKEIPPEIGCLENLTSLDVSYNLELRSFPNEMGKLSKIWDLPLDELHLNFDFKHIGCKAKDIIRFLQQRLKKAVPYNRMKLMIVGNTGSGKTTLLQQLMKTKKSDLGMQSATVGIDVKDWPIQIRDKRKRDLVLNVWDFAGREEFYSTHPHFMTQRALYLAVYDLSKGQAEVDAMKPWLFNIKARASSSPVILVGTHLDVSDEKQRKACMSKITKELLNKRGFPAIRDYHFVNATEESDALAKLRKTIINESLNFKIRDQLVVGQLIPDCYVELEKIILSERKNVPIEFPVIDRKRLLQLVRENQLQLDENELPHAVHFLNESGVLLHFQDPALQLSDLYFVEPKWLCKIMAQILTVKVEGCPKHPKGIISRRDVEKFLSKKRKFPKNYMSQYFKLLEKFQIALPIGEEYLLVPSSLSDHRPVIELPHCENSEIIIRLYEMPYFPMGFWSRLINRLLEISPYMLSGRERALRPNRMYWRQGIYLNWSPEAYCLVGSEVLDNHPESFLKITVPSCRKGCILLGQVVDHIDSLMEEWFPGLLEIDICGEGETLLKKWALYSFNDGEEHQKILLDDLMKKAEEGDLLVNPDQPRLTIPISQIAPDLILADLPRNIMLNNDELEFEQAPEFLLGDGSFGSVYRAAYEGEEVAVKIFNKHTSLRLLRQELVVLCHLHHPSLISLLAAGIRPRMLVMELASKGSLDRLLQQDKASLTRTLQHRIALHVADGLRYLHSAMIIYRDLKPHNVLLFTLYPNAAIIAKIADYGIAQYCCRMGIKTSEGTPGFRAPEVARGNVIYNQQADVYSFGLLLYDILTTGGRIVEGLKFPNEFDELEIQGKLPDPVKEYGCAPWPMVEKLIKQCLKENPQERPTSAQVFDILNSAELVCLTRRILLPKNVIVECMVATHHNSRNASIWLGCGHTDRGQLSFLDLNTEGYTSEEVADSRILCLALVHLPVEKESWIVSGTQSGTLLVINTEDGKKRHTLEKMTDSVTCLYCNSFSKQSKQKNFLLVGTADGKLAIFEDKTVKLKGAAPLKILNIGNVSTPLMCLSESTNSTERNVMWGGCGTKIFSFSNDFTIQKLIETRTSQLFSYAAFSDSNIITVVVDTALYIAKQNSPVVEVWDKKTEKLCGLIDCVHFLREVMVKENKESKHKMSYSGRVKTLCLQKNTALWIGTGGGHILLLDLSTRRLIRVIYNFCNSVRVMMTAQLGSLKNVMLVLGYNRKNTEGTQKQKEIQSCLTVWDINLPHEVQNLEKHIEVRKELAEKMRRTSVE
Assay: LanthaScreen Kinase Activity Assay (TR-FRET), wild type LRRK2
Format: biochemical
Conditions: class symbols; 25 μM ATP, 400 nM LRRKtide, 2.9 nM kinase, 60 min at room temperature; read-out: LRRK2 WT IC50
pIC50: −log10 of the molar value.

>  <Smiles>
Cc1cc(-c2n[nH]c3ccc(NC(=O)c4c(F)cc5c(cnn5C)c4F)cc23)n(C)n1

>  <Assay target>
Recombinant wild type LRRK2 protein (Homo sapiens, UniProt Q5S007)

>  <pIC50>
5.00 to 6.00

$$$$
>  <Smiles>
Cc1c(C(=O)Nc2ccc3[nH]nc(-c4ccccc4)c3c2)ccc2cncn12

>  <Assay target>
Recombinant wild type LRRK2 protein (Homo sapiens, UniProt Q5S007)

>  <pIC50>
6.00 to 7.00

$$$$
>  <Smiles>
O=C(Nc1ccc2[nH]nc(-c3ccoc3)c2c1)c1ccc2scnc2c1

>  <Assay target>
Recombinant wild type LRRK2 protein (Homo sapiens, UniProt Q5S007)

>  <pIC50>
6.00 to 7.00

$$$$
>  <Smiles>
Cn1ncc2c(F)c(C(=O)Nc3ccc4[nH]nc(-c5ccon5)c4c3)c(F)cc21

>  <Assay target>
Recombinant wild type LRRK2 protein (Homo sapiens, UniProt Q5S007)

>  <pIC50>
≥ 7.00

$$$$

====

Target: Recombinant G2019S-LRRK2 protein (Homo sapiens, UniProt Q5S007, G2019S)
Sequence (Q5S007 whole entry G2019S): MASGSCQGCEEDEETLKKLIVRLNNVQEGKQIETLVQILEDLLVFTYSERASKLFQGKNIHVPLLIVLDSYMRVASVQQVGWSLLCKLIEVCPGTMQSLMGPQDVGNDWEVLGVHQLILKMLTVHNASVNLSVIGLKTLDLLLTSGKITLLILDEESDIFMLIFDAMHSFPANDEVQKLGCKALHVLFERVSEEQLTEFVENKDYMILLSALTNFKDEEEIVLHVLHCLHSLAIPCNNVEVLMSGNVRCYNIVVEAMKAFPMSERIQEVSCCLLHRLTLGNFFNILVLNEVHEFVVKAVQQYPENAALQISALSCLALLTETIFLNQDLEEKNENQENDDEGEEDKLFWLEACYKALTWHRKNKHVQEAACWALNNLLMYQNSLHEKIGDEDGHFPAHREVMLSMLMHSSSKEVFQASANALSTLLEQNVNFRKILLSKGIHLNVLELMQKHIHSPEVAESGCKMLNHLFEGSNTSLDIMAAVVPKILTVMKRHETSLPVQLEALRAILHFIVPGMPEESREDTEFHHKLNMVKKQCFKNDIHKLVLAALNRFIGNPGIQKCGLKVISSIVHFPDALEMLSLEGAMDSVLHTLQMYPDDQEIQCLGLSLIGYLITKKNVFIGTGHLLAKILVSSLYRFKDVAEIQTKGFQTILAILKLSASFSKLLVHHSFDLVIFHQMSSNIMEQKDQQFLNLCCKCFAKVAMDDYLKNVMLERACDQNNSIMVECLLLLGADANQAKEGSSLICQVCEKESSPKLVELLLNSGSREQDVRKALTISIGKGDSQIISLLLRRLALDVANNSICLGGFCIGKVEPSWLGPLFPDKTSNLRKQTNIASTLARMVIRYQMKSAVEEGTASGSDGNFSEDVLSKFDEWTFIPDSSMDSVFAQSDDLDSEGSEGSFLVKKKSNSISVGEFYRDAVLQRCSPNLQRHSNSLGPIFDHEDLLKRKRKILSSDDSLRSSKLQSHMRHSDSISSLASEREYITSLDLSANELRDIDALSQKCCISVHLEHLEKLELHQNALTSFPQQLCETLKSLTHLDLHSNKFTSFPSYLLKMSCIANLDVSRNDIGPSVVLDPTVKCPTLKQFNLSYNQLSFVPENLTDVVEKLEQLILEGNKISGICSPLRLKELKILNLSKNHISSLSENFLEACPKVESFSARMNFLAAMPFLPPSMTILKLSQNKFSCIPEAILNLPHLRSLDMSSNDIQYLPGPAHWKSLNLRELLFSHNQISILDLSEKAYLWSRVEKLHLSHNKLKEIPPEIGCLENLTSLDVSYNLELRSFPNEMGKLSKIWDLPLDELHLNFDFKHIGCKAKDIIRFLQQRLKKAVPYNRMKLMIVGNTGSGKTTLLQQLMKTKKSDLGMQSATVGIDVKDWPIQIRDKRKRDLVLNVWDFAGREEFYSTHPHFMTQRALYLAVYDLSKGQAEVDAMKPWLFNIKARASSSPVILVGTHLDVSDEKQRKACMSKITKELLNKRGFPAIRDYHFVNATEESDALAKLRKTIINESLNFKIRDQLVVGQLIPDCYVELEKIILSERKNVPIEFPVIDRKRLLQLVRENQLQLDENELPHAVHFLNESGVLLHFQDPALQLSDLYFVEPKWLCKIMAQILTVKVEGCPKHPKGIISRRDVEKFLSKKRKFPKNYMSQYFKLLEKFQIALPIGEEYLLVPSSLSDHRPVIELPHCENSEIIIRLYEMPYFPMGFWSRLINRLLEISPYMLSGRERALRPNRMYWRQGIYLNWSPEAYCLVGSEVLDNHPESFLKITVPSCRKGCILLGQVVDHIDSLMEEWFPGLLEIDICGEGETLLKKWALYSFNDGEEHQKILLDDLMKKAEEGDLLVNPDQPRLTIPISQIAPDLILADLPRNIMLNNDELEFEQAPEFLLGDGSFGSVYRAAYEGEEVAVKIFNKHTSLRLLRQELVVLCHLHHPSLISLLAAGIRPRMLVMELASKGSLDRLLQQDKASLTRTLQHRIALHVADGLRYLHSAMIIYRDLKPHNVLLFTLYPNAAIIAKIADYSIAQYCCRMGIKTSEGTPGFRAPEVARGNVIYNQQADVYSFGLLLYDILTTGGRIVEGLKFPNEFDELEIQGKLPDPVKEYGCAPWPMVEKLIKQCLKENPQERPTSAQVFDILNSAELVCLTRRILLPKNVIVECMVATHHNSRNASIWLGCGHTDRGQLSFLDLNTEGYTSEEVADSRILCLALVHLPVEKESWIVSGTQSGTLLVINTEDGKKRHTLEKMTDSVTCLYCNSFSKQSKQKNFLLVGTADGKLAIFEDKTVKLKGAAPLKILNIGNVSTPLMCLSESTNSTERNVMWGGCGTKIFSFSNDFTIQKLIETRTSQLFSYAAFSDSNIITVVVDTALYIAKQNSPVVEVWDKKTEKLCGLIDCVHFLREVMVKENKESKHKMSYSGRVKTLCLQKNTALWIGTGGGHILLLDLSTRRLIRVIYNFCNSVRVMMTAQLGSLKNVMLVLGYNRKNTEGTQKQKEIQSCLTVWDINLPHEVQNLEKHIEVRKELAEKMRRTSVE
Assay: LanthaScreen Kinase Activity Assay (TR-FRET), G2019S-LRRK2
Conditions: class symbols; 25 μM ATP, 400 nM LRRKtide, 2.9 nM kinase, 60 min at room temperature
pIC50: −log10 of the molar value.

>  <Compound>
Cc1cc2cc[nH]c2cc1C(=O)Nc1ccc2[nH]nc(-c3ccccc3)c2c1 [Example 22]

>  <pIC50>
6.00 to 7.00

$$$$
>  <Compound>
Cn1cc2cc(C(=O)Nc3ccc4[nH]nc(-c5cnco5)c4c3)ncc2n1 [Example 159]

>  <pIC50>
≥ 7.00

$$$$
>  <Compound>
Cc1cc2[nH]ncc2cc1C(=O)Nc1ccc2[nH]nc(-c3ccccc3)c2c1 [Example 21]

>  <pIC50>
≥ 7.00

$$$$
>  <Compound>
Cc1cc2cnnn2c(C)c1C(=O)Nc1ccc2[nH]nc(Br)c2c1 [Example 45]

>  <pIC50>
≥ 7.00

$$$$
>  <Compound>
COc1ccncc1-c1n[nH]c2ccc(NC(=O)c3c(F)cc4c(cnn4C)c3F)cc12 [Example 102]

>  <pIC50>
≥ 7.00

$$$$
>  <Compound>
Cn1ncc2c(F)c(C(=O)Nc3ccc4[nH]nc(-c5cncc(N6CCOCC6)c5)c4c3)c(F)cc21 [Example 98]

>  <pIC50>
≥ 7.00

$$$$
>  <Compound>
Cc1cnccc1-c1n[nH]c2ccc(NC(=O)c3c(F)cc4c(cnn4C)c3F)cc12 [Example 40]

>  <pIC50>
6.00 to 7.00

$$$$
>  <Compound>
Cc1cn2cncc2cc1C(=O)Nc1ccc2[nH]nc(-c3ccccc3)c2c1 [Example 52]

>  <pIC50>
≥ 7.00

$$$$
>  <Compound>
Cc1n[nH]c2ccc(NC(=O)c3ccc4nn[nH]c4c3)cc12 [Example 9]

>  <pIC50>
5.00 to 6.00

$$$$
>  <Compound>
O=C(Nc1ccc2[nH]nc(-c3ccoc3)c2c1)c1nc2ccncc2s1 [Example 171]

>  <pIC50>
≥ 7.00

$$$$
>  <Compound>
Cc1ncc(-c2n[nH]c3ccc(NC(=O)c4c(F)cc5c(cnn5C)c4F)cc23)s1 [Example 95]

>  <pIC50>
≥ 7.00

$$$$
>  <Compound>
Cc1cc2c(C)ncn2c(C)c1C(=O)Nc1ccc2[nH]nc(-c3ccoc3)c2c1 [Example 147]

>  <pIC50>
≥ 7.00

$$$$
>  <Compound>
O=C(Nc1ccc2[nH]nc(-c3ccoc3)c2c1)c1ccn2ccnc2c1 [Example 118]

>  <pIC50>
6.00 to 7.00

$$$$
>  <Compound>
Cn1ncc2c(F)c(C(=O)Nc3ccc4[nH]nc(Cc5ccccc5)c4c3)c(F)cc21 [Example 140]

>  <pIC50>
6.00 to 7.00

$$$$
>  <Compound>
COc1ccccc1-c1n[nH]c2ccc(NC(=O)c3c(C)cc4cnnn4c3C)cc12 [Example 46]

>  <pIC50>
≥ 7.00

$$$$
>  <Compound>
Cc1cc2cnnn2c(C)c1C(=O)Nc1ccc2[nH]nc(-c3ccco3)c2c1 [Example 155]

>  <pIC50>
≥ 7.00

$$$$
>  <Compound>
O=C(Nc1ccc2[nH]nc(-c3ccoc3)c2c1)c1ccn2nccc2n1 [Example 127]

>  <pIC50>
≥ 7.00

$$$$
